meta.source: patent US20240173419A1

measurement.target: CDK2 (Homo sapiens)
Construct: endogenous in cells; host or cells: MKN1 cells
assay.name: CDK2 degradation in MKN1 cells (AlphaLISA)
Assay type: cell-based
test.parameters: 14 h incubation, read-out: CDK2 degradation 14 h: Mean external-Abs DC50

molecule: Cc1cc(S(=O)(=O)C2CC3(CCN(CC4CCN(c5ccc6c(N7CCC(=O)NC7=O)nn(C)c6c5F)CC4)CC3)C2)ccc1Nc1ncc2cc(Cl)c(=O)n(C3CCCC3)c2n1
DC50: < 100 nM
--
molecule: Cc1cc(S(=O)(=O)C2CC3(CCN(CC4CCN(c5ccc(NC6CCC(=O)NC6=O)c(Cl)c5)CC4)CC3)C2)ccc1Nc1ncc2cc(Cl)c(=O)n(C3CCCC3)c2n1 (stereo not drawn)
DC50: < 100 nM
--
molecule: Cc1cc(S(=O)(=O)NCCCCCC2CCN(c3ccc(N4CCC(=O)NC4=O)cc3)CC2)ccc1Nc1ncc2cc(Cl)c(=O)n(C3CCCC3)c2n1
DC50: > 1000 nM
--
molecule: Cc1cc(S(=O)(=O)C2CC3(CCN(CC4CCN(c5cccc(NC6CCC(=O)NC6=O)c5C)CC4)CC3)C2)ccc1Nc1ncc2cc(Cl)c(=O)n(C3CCCC3)c2n1 (stereo not drawn)
DC50: 100 to 500 nM
--
molecule: Cc1cc(S(=O)(=O)N2CCC(CN(C)C3CCN(c4cccc5c4n(C)c(=O)n5C4CCC(=O)NC4=O)CC3)CC2)ccc1Nc1ncc2cc(Cl)c(=O)n(C3CCCC3)c2n1 (stereo not drawn)
DC50: < 100 nM
--
molecule: Cc1cc(S(=O)(=O)NC2CCC(CN3CCN(c4ccc(C5CCC(=O)NC5=O)c(C)c4F)CC3)CC2)ccc1Nc1ncc(C(F)(F)F)c(N2CCCC(C)(O)C2)n1 (stereo not drawn)
DC50: < 100 nM
